Tested on: A549 cells
Test: Single agent proliferation assay, CellTiter-Glo, A549
Assay type: cell-based
Details: Homo sapiens, 72 h, read-out: Relative IC50
// reported IC50 for each item listed
The reply should be a number in µM, with the unit left off.

Observe how each entry below is paired with its result.
* CC(=O)O[C@H]1C(=O)[C@@]2(C)[C@H]([C@H](OC(=O)c3ccccc3)[C@]3(O)C[C@H](OC(=O)[C@H](O)[C@@H](NC(=O)c4ccccc4)c4ccccc4)C(C)=C1C3(C)C)[C@]1(OC(C)=O)CO[C@@H]1C[C@@H]2O | 0.003
* CC(=O)Nc1cccc(-n2c(=O)n(C3CC3)c(=O)c3c(Nc4ccc(I)cc4F)n(C)c(=O)c(C)c32)c1 | 0.005
* CC(C)Nc1cc(-c2c[nH]c(C(=O)N[C@H](CO)c3cccc(Cl)c3)c2)c(Cl)cn1 | 0.73

Note: attention shifts to another entry.
Value of measured IC50 for the entry O=C(Nc1ccc2[nH]nc(-c3ccncc3)c2c1)[C@@H]1CCN(CC(=O)N2CCN(c3ccc(-c4ncccn4)cc3)CC2)C1 : 1.1

Reference source for all entries: patent US11679112B2
